Each entry below carries its reported inhibition at 10 µM.
Tested on: HCV replication
Assay: HCV replicon assay (luciferase), ET (Huh-lucubineo-ET) cell line
Assay type: cell-based
Conditions: Hepatitis C virus; tested at 10 μM; ET (Huh-lucubineo-ET) replicon cells; luciferase activity 48-72 hours; relative to no compound control
OUTCOME MEASURE: inhibition at 10 µM (%)

COMPOUND | OUTCOME MEASURE | ENDPOINT UNIT | NUMERIC VALUE
COc1ccc(-c2ccc3nc([C@@H]4CCCN4C(=O)OCc4ccccc4)[nH]c3c2)c(OC)c1 [Compound 4017] | inhibition at 10 µM | % | 42.4
O=C(OCc1ccccc1)N1CCC[C@H]1c1nc2ccc(-c3ccc4[nH]ccc4c3)cc2[nH]1 [Compound 4035] | inhibition at 10 µM | % | 99.9
Nc1ccc(-c2ccc3nc([C@@H]4CCCN4C(=O)OCc4ccccc4)[nH]c3c2)cc1 [Compound 4008] | inhibition at 10 µM | % | 13.6
O=C(Cc1ccc(-c2ccc([C@@H]3CCCN3C(=O)OCc3ccccc3)cc2)cc1)NC1CC1 (stereo in doubt) [Compound 4002] | inhibition at 10 µM | % | 33.3
O=C(NC1CC1)c1ccc(-c2ccc3nc([C@@H]4CCCN4C(=O)OCc4ccccc4)[nH]c3c2)cc1 [Compound 4020] | inhibition at 10 µM | % | 96.1
N#Cc1ccc(-c2ccc3nc([C@@H]4CCCN4C(=O)OCc4ccccc4)[nH]c3c2)cc1 [Compound 4049] | inhibition at 10 µM | % | 20
O=C(NC1CC1)c1cccc(-c2ccc3nc([C@@H]4CCCN4C(=O)OCc4ccccc4)[nH]c3c2)c1 [Compound 4001] | inhibition at 10 µM | % | 94.5
